Reported Ki by item:
# testTarget: UniProtKB P33535
# Sequence (P33535 whole entry): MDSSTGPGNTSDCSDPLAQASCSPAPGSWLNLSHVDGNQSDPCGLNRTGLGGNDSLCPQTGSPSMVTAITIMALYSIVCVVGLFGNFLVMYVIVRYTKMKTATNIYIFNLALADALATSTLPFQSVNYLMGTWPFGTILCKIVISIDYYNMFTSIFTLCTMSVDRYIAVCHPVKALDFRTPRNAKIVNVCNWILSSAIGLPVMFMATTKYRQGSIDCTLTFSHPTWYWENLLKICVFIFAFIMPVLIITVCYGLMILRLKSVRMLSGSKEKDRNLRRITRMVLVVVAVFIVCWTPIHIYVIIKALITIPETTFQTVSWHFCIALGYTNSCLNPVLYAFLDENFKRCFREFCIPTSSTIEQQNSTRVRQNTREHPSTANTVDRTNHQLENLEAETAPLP
# assayComment: Binding affinity towards Opioid receptor mu 1 in rat brain membrane using [3H]DAGO as radioligand
# Assay type: cell membranes
Bridge positions count the residues as written; N and C are the ends. Square brackets hold non-standard residues; d marks the D form. Peptide text beside a SMILES is read from it. Orn = NCCC[C@H](N)C(=O)O

Examples with answers:
compound	Ki
CN1C(=O)[C@H](NC(=O)[C@@H](N)Cc2ccc(O)cc2)CCCNC(=O)C[C@@H](C(N)=O)NC(=O)[C@@H]1Cc1ccccc1	3570 nM
NC(=O)[C@@H]1CC(=O)NCCC[C@@H](NC(=O)[C@@H](N)Cc2ccc(O)cc2)C(=O)N[C@@H](CCc2ccccc2)C(=O)N1	11.9 nM
NC(=O)[C@@H]1CCNC(=O)C[C@@H](NC(=O)[C@@H](N)Cc2ccc(O)cc2)C(=O)N[C@@H](Cc2ccccc2)C(=O)N1	24.8 nM

Complete the entry with Ki for NC(=O)[C@@H]1CCCNC(=O)C[C@@H](NC(=O)[C@@H](N)Cc2ccc(O)cc2)C(=O)N[C@@H](Cc2ccccc2)C(=O)N1 (H-Y[dD]F[Orn]-NH2; lactam 2-4)
9.55 nM

Complete the entry with Ki for NC(=O)[C@H]1CC(=O)NCCC[C@@H](NC(=O)[C@@H](N)Cc2ccc(O)cc2)C(=O)N[C@@H](Cc2ccccc2)C(=O)N1
21.7 nM

Complete the entry with Ki for NC(=O)[C@@H]1CC(=O)NCCC[C@@H](NC(=O)[C@@H](N)Cc2ccc(O)cc2)C(=O)N[C@@H](Cc2ccc([N+](=O)[O-])cc2)C(=O)N1
273 nM
